- subject of test: human 5-HT2C receptor (Homo sapiens, UniProt P28335)
- Sequence (P28335 33-458): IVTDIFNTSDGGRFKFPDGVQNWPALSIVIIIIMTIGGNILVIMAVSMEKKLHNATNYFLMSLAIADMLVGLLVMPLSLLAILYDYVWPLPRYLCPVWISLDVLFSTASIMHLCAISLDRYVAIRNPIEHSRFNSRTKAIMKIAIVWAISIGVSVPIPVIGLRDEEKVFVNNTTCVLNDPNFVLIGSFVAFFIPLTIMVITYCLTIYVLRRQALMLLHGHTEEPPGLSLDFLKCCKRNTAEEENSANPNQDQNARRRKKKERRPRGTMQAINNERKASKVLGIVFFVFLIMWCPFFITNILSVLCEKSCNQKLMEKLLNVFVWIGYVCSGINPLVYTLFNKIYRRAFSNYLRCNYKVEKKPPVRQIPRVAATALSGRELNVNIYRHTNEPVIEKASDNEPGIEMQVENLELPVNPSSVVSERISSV
- assay method text: Calcium mobilization in response to 5-HT2C receptor agonists (FLIPR, CHO cells)
- setup conditions: calcium mobilization, CHO cells stably expressing human 5-HT2C; read-out: 5-HT2C Function EC50
Structures can show the parent of a compound that is named as a salt.
Reported EC50 values are given for each entry in this list.

c1cc2c3c(c1)C1CCCCCC1CN3CCNC2 (stereo not drawn) [Example 8] : 261 nM
c1cc2c3c(c1)C1CCCC1CN3CCNC2 (single isomer, unassigned; (-)) [Example 4] : 8 nM

Consider the additional compound presented here.
The measured EC50 that c1cc2c3c(c1)C1CCCCC1CN3CCNC2 (stereo not drawn) [Example 6, hydrochloride] showed for human 5-HT2C receptor (Homo sapiens, UniProt P28335) is 65 nM

---

- subject of test: human 5-hydroxytryptamine2C (h5HT2C) receptor (Homo sapiens, UniProt P28335)
- Construct: expressed in transfected cells; host or cells: CHO (Chinese Hamster Ovary) cells; membrane preparation
- assay method text: 5HT2C receptor binding ([125I]DOI displacement, CHO cell membranes)
pKi: −log10 of the molar value. Where a name gives a salt, the structure may show the parent alone.
Entry flag: true (1) if pKi reaches 7; false (0) if it does not.

Use these answered entries as a reference point.
COc1cc2c3c(c1F)C1CCCCCC1CN3CCNC2 (stereo not drawn) [Example 34, hydrochloride] : false (0)
COc1cc2c3c(c1F)C1CCCC1CN3CCNC2 (stereo not drawn) [Example 32, hydrochloride] : false (0)
c1cc2c3c(c1)C1CCCCC1CN3CCNC2 (stereo not drawn) [Example 6, hydrochloride] : true (1)
FC(F)(F)c1ccc2c3c1C1CCCC1CN3CCNC2 (stereo not drawn) [Example 30, hydrochloride] : true (1)
COc1cc2c3c(c1)C1CCCC1CN3CCNC2 (stereo not drawn) [Example 24, hydrochloride] : false (0)
Fc1ccc2c3c1C1CCCC1CN3CCNC2 (stereo not drawn) [Example 26, hydrochloride] : true (1)
c1cc2c3c(c1)C1CCCC1CN3CCNC2 (single isomer, unassigned; (-)) [Example 4] : true (1)

Is the recorded value of pKi equal to or greater than 7 for this molecule? Clc1cc2c3c(c1)C1CCCCCC1CN3CCNC2 (stereo not drawn) [Example 20, hydrochloride]
false (0)

---

- subject of test: human 5-hydroxytryptamine2C (h5HT2C) receptor (Homo sapiens)
- Construct: expressed in transfected cells; host or cells: CHO (Chinese Hamster Ovary) cells; membrane preparation
- assay method text: 5HT2C receptor binding ([125I]DOI displacement, CHO cell membranes)
pKi: −log10 of the molar value. Counter-ions that a name gives are not always drawn.
Entry flag: Fulfilled if pKi reaches 7; Not fulfilled if it does not.

Use these answered entries as a reference point.
Fc1ccc2c3c1C1CCCCCC1CN3CCNC2 (centres unmarked) [Example 28, hydrochloride] : Not fulfilled
Brc1cc2c3c(c1)C1CCCCCC1CN3CCNC2 (centres unmarked) [Example 16, hydrochloride] : Not fulfilled

Is the recorded value of pKi equal to or greater than 7 for this compound? c1cc2c3c(c1)C1CCCCCC1CN3CCNC2 (centres unmarked) [Example 8]
Fulfilled

Is the recorded value of pKi equal to or greater than 7 for this compound? c1cc2c3c(c1)[C@H]1CCCCC[C@H]1CN3CCNC2 [Example 10, hydrochloride]
Fulfilled
